system_under_test: Dual specificity protein kinase TTK (Homo sapiens);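 note: reported figures are mean TTK inhibition at 1 µM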
assay_conditions: at 1 µM
Field: inhibition. Provide a value for each of the compounds that follow.
One number for each entry, in %.

The cases that follow already have their inhibition on record.
{"input_smiles": "COc1cc(C=NNc2ncnc3c2cnn3Cc2ccccc2)ccc1O", "system_under_test": "Dual specificity protein kinase TTK (Homo sapiens)", "test_readout": "inhibition", "assay_value": 3.09}
{"input_smiles": "Fc1ccc(-c2ncn(C3CCNCC3)c2-c2ccnc(Oc3ccccc3)n2)cc1", "system_under_test": "Dual specificity protein kinase TTK (Homo sapiens)", "test_readout": "inhibition", "assay_value": 6.14}
{"input_smiles": "Cc1cc(-c2ccco2)cc(C)c1/C=C/c1cncc(-c2nn[nH]n2)c1", "system_under_test": "Dual specificity protein kinase TTK (Homo sapiens)", "test_readout": "inhibition", "assay_value": 4.48}
{"input_smiles": "Nc1nonc1-c1nc2cnccc2n1C1CCCCC1", "system_under_test": "Dual specificity protein kinase TTK (Homo sapiens)", "test_readout": "inhibition", "assay_value": 4.51}
{"input_smiles": "COc1cccc(COc2cc(-n3cnc4ccccc43)sc2C(N)=O)c1", "system_under_test": "Dual specificity protein kinase TTK (Homo sapiens)", "test_readout": "inhibition", "assay_value": 4.76}
{"input_smiles": "NS(=O)(=O)c1ccc(N/C=C2\\C(=O)Nc3ccc4ncsc4c32)cc1", "system_under_test": "Dual specificity protein kinase TTK (Homo sapiens)", "test_readout": "inhibition", "assay_value": 62.4}
{"input_smiles": "CCn1c(-c2nonc2N)nc2c(C#CC(C)(C)O)ncc(OC[C@@H]3CCCN3)c21", "system_under_test": "Dual specificity protein kinase TTK (Homo sapiens)", "test_readout": "inhibition", "assay_value": 4.1}

# input for lookup
Indicate the recorded inhibition value for this compound: NC(=O)c1sc(-n2cnc3cc(C(F)(F)F)ccc32)cc1OCc1ccccc1Br
3.54

* * *

system_under_test: BDNF/NT-3 growth factors receptor (Homo sapiens);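 note: values are the mean percent inhibition of TRKB kinase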
assay_conditions: at 1 µM
Field: inhibition. Provide a value for each of the compounds that follow.
Numbers only, in %.

The cases that follow already have their inhibition on record.
{"input_smiles": "NS(=O)(=O)c1ccc(-c2ccc3c(NC(=O)C4CC4)n[nH]c3c2)cc1", "system_under_test": "BDNF/NT-3 growth factors receptor (Homo sapiens)", "unit_tag": "%", "assay_value": 5.39}
{"input_smiles": "CCn1c(-c2nonc2N)nc2c(C#CC(C)(C)O)nc(O[C@@H](CN)c3ccccc3)cc21", "system_under_test": "BDNF/NT-3 growth factors receptor (Homo sapiens)", "unit_tag": "%", "assay_value": 1.16}
{"input_smiles": "COc1cc2c(cc1Nc1nc(Nc3ccsc3C(N)=O)c3cc[nH]c3n1)N(C(=O)CN(C)C)CCC2", "system_under_test": "BDNF/NT-3 growth factors receptor (Homo sapiens)", "unit_tag": "%", "assay_value": 3.59}
{"input_smiles": "Fc1ccc(-c2ncn(C3CCNCC3)c2-c2ccnc(Oc3ccccc3)n2)cc1", "system_under_test": "BDNF/NT-3 growth factors receptor (Homo sapiens)", "unit_tag": "%", "assay_value": 2.74}
{"input_smiles": "Cc1cc(-c2ccco2)cc(C)c1/C=C/c1cncc(-c2nn[nH]n2)c1", "system_under_test": "BDNF/NT-3 growth factors receptor (Homo sapiens)", "unit_tag": "%", "assay_value": 4.36}
{"input_smiles": "NS(=O)(=O)c1ccc(N/C=C2\\C(=O)Nc3ccc4ncsc4c32)cc1", "system_under_test": "BDNF/NT-3 growth factors receptor (Homo sapiens)", "unit_tag": "%", "assay_value": 65.9}

// for each compound in input: emit inhibition
1. Nc1nonc1-c1nc2cnccc2n1C1CCCCC1
2. CCn1c(-c2nonc2N)nc2c(C#CCN)ncc(OCCCN)c21

1. -0.84
2. -1.3

* * *

system_under_test: Inhibitor of nuclear factor kappa-B kinase subunit epsilon (Homo sapiens);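 note: mean inhibition of IKKε reported, from the GSK PKIS dataset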
assay_conditions: at 0.1 µM
test_readout: inhibition (%)
Give bare numbers, in %.

The cases that follow already have their inhibition on record.
{"input_smiles": "CCn1c(-c2nonc2N)nc2c(C#CC(C)(C)O)nc(O[C@@H](CN)c3ccccc3)cc21", "inhibition / %": 88.3}
{"input_smiles": "Fc1ccc(-c2ncn(C3CCNCC3)c2-c2ccnc(Oc3ccccc3)n2)cc1", "inhibition / %": 2.6}
{"input_smiles": "NC(=O)c1sc(-n2cnc3cc(C(F)(F)F)ccc32)cc1OCc1ccccc1Br", "inhibition / %": 3.08}
{"input_smiles": "NS(=O)(=O)c1ccc(N/C=C2\\C(=O)Nc3ccc4ncsc4c32)cc1", "inhibition / %": 13.3}
{"input_smiles": "CCn1c(-c2nonc2N)nc2c(C#CC(C)(C)O)ncc(OC[C@@H]3CCCN3)c21", "inhibition / %": 89.6}
{"input_smiles": "COc1cc2c(cc1Nc1nc(Nc3ccsc3C(N)=O)c3cc[nH]c3n1)N(C(=O)CN(C)C)CCC2", "inhibition / %": -5.2}
{"input_smiles": "Cc1cc(-c2ccco2)cc(C)c1/C=C/c1cncc(-c2nn[nH]n2)c1", "inhibition / %": 4.22}
{"input_smiles": "CCn1c(-c2nonc2N)nc2c(C#CC(C)(C)O)ncc(OCC3CCNCC3)c21", "inhibition / %": 90.3}
{"input_smiles": "Nc1nonc1-c1nc2cnccc2n1C1CCCCC1", "inhibition / %": -0.73}

# input for lookup
Indicate the recorded inhibition value for this compound: CCn1c(-c2nonc2N)nc2c(C#CCN)ncc(OCCCN)c21
0.53

* * *

system_under_test: Cyclin-dependent kinase 4 (Homo sapiens) (UniProt P11802)
Sequence (P11802 whole entry): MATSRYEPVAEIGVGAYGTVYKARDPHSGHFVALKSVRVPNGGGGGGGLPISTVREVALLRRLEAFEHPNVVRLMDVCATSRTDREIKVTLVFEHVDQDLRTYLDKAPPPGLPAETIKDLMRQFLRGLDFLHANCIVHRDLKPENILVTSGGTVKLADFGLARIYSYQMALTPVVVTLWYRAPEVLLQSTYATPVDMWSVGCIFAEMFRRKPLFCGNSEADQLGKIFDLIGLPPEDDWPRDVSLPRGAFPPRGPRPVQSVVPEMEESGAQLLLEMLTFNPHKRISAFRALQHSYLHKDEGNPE
assay_conditions: at 0.1 µM
Description: GSK_PKIS: CDK4/cyclinD mean inhibition at 0.1 uM [Nanosyn]
test_readout: inhibition (%)
Give bare numbers, in %.

The cases that follow already have their inhibition on record.
{"input_smiles": "NS(=O)(=O)c1ccc(-c2ccc3c(NC(=O)C4CC4)n[nH]c3c2)cc1", "unit_tag": "%", "assay_value": 3.11}
{"input_smiles": "CCn1c(-c2nonc2N)nc2c(C#CC(C)(C)O)ncc(OCC3CCNCC3)c21", "unit_tag": "%", "assay_value": -1.61}
{"input_smiles": "COc1cccc(COc2cc(-n3cnc4ccccc43)sc2C(N)=O)c1", "unit_tag": "%", "assay_value": 0.26}
{"input_smiles": "NC(=O)c1sc(-n2cnc3cc(C(F)(F)F)ccc32)cc1OCc1ccccc1Br", "unit_tag": "%", "assay_value": 1.17}

// for each compound in input: emit inhibition
1. Cc1cc(-c2ccco2)cc(C)c1/C=C/c1cncc(-c2nn[nH]n2)c1
2. NS(=O)(=O)c1ccc(N/C=C2\C(=O)Nc3ccc4ncsc4c32)cc1

1: 0.48; 2: 30.7

* * *

Field: inhibition. Provide a value for each of the molecules that follow.
system_under_test: Tyrosine-protein kinase FRK (Homo sapiens) (UniProt P42685);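 note: reported percent inhibition is a mean value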
Sequence (P42685 whole entry): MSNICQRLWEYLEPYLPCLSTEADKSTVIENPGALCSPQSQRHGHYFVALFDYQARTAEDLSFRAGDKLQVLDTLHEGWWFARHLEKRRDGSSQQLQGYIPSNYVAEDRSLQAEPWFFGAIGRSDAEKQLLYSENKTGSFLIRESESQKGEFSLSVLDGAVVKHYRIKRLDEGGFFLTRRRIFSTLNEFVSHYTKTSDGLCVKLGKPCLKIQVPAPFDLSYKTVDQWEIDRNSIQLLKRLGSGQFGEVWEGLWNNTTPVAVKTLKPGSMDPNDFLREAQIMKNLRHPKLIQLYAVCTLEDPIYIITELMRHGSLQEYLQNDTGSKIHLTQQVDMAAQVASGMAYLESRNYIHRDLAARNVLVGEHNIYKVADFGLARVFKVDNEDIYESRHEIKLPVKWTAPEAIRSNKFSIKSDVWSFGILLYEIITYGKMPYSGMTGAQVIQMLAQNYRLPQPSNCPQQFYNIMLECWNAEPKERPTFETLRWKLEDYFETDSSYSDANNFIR
assay_conditions: at 1 µM
Numbers only, in %.

{"input_smiles": "Cc1cc(-c2ccco2)cc(C)c1/C=C/c1cncc(-c2nn[nH]n2)c1", "test_readout": "inhibition", "unit_tag": "%", "assay_value": -0.05}

// for each molecule in input: emit inhibition
1. CCn1c(-c2nonc2N)nc2c(C#CCN)ncc(OCCCN)c21
2. Nc1nonc1-c1nc2cnccc2n1C1CCCCC1
3. COc1cc2c(cc1Nc1nc(Nc3ccsc3C(N)=O)c3cc[nH]c3n1)N(C(=O)CN(C)C)CCC2
4. CCn1c(-c2nonc2N)nc2c(C#CC(C)(C)O)nc(O[C@@H](CN)c3ccccc3)cc21
5. Fc1ccc(-c2ncn(C3CCNCC3)c2-c2ccnc(Oc3ccccc3)n2)cc1
6. CCn1c(-c2nonc2N)nc2c(C#CC(C)(C)O)ncc(OCC3CCNCC3)c21
7. COc1cccc(-n2ncc3c(N/N=C/c4ccncc4)ncnc32)c1

-0.01
0.75
8.84
0.63
1.29
1.21
5.75

// for each molecule in input: emit inhibition
1. NS(=O)(=O)c1ccc(-c2ccc3c(NC(=O)C4CC4)n[nH]c3c2)cc1
2. COc1cccc(COc2cc(-n3cnc4ccccc43)sc2C(N)=O)c1

1. 1.3
2. 0.01

* * *

system_under_test: Casein kinase I isoform alpha (Homo sapiens);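 note: each value is a mean percent inhibition of the kinase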
assay_conditions: at 1 µM
Field: inhibition. Provide a value for each of the compounds that follow.
Give bare numbers, in %.

{"input_smiles": "COc1cccc(-n2ncc3c(N/N=C/c4ccncc4)ncnc32)c1", "unit_tag": "%", "assay_value": 11.2}
{"input_smiles": "CCn1c(-c2nonc2N)nc2c(C#CC(C)(C)O)ncc(OCC3CCNCC3)c21", "unit_tag": "%", "assay_value": 4.34}
{"input_smiles": "COc1cc(C=NNc2ncnc3c2cnn3Cc2ccccc2)ccc1O", "unit_tag": "%", "assay_value": -4.3}

// for each compound in input: emit inhibition
1. Fc1ccc(-c2ncn(C3CCNCC3)c2-c2ccnc(Oc3ccccc3)n2)cc1
2. NS(=O)(=O)c1ccc(N/C=C2\C(=O)Nc3ccc4ncsc4c32)cc1

1: 30.9; 2: 14.7
